assay: Cytotoxicity against HEK293T cells incubated overnight by CCK8 assay; conditions: human
result.type: IC50 (µM)
Give your result in µM as a bare value.

For the compound shown here, CC1(C)[C@@H](O[C@H]2O[C@H](CO)[C@@H](O)[C@H](O)[C@@H]2O)CC[C@]2(C)[C@H]3C(=O)C=C4[C@H]5C[C@@](C)(CNC(=O)NCC6CCOCC6)CC[C@]5(C)CC[C@@]4(C)[C@]3(C)CC[C@@H]12 , give the reported IC50. 46.6

* * *

target: Bifunctional epoxide hydrolase 2 (Mus musculus); assay: Inhibition of C57BL/6J mouse cortex sEH using 14,15-EET as substrate preincubated for 15 mins followed by substrate addition measured after 2 hrs by UPLC-MS/MS analysis
Assign pIC50 to each entry below.
Please express pIC50 as -log10 of the molar concentration.

For the compound shown here, CC1(C)[C@@H](O[C@@H]2O[C@H](CO)[C@@H](O)[C@H](O)[C@H]2O)CC[C@]2(C)[C@H]3C(=O)C=C4[C@H]5C[C@@](C)(CNC(=O)NCC6CCOCC6)CC[C@]5(C)CC[C@@]4(C)[C@]3(C)CC[C@@H]12 , give the reported pIC50. 6.52

For the compound shown here, CC1(C)[C@@H](O[C@H]2O[C@H](CO)[C@@H](O)[C@H](O)[C@@H]2O)CC[C@]2(C)[C@H]3C(=O)C=C4[C@H]5C[C@@](C)(CNC(=O)NCC6CCOCC6)CC[C@]5(C)CC[C@@]4(C)[C@]3(C)CC[C@@H]12 , give the reported pIC50. 6.92

* * *

Assign IC50 to each entry below.
target: Bifunctional epoxide hydrolase 2 (Mus musculus, UniProt P34914); experiment: Inhibition of C57BL/6J mouse cortex sEH using 14,15-EET as substrate preincubated for 15 mins followed by substrate addition measured after 2 hrs by UPLC-MS/MS analysis
Sequence (P34914 whole entry): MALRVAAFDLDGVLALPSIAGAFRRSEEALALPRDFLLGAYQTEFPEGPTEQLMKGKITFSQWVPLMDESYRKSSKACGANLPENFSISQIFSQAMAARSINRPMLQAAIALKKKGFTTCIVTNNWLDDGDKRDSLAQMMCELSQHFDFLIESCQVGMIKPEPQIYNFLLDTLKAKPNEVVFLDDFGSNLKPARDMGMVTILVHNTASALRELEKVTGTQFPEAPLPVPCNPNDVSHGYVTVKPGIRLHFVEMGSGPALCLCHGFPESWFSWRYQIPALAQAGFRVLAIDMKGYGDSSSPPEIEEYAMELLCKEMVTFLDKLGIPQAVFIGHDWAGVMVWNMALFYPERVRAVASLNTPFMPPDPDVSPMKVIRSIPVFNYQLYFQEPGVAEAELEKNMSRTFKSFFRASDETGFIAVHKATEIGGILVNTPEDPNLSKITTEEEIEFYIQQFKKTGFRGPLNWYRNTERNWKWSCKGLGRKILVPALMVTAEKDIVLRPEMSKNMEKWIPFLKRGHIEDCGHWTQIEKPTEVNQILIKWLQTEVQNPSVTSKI
Give your result in nM as a bare value.

Could you share what IC50 was measured for CC1(C)[C@@H](O)CC[C@]2(C)[C@H]3C(=O)C=C4[C@H]5C[C@@](C)(CNC(=O)NCc6ccc(OC(F)(F)F)cc6)CC[C@]5(C)CC[C@@]4(C)[C@]3(C)CC[C@@H]12 , tested on Bifunctional epoxide hydrolase 2 (Mus musculus, UniProt P34914)? 16.9

Could you share what IC50 was measured for CC1(C)[C@@H](O[C@H]2O[C@H](CO)[C@@H](O)[C@H](O)[C@H]2O)CC[C@]2(C)[C@H]3C(=O)C=C4[C@@H]5C[C@@](C)(CNC(=O)NCC6CCC(OC(F)(F)F)CC6)CC[C@]5(C)CC[C@@]4(C)[C@]3(C)CC[C@@H]12 (stereo not given in full) , tested on Bifunctional epoxide hydrolase 2 (Mus musculus, UniProt P34914)? 2270

Could you share what IC50 was measured for CC1(C)C(=O)CC[C@]2(C)[C@H]3C(=O)C=C4[C@@H]5C[C@@](C)(CNC(=O)NCC6CCOCC6)CC[C@]5(C)CC[C@@]4(C)[C@]3(C)CC[C@@H]12 , tested on Bifunctional epoxide hydrolase 2 (Mus musculus, UniProt P34914)? 18.9

Could you share what IC50 was measured for CC1(C)[C@@H](O[C@@H]2O[C@H](CO)[C@@H](O)[C@H](O)[C@H]2O)CC[C@]2(C)[C@H]3C(=O)C=C4[C@H]5C[C@@](C)(CNC(=O)NCc6ccc(OC(F)(F)F)cc6)CC[C@]5(C)CC[C@@]4(C)[C@]3(C)CC[C@@H]12 , tested on Bifunctional epoxide hydrolase 2 (Mus musculus, UniProt P34914)? 3720

Could you share what IC50 was measured for CC1(C)C(=O)CC[C@]2(C)[C@H]3C(=O)C=C4[C@H]5C[C@@](C)(CNC(=O)NCC6CCOCC6)CC[C@]5(C)CC[C@@]4(C)[C@]3(C)CC[C@@H]12 , tested on Bifunctional epoxide hydrolase 2 (Mus musculus, UniProt P34914)? 13.4

* * *

target: Bifunctional epoxide hydrolase 2 (Mus musculus); experiment: Inhibition of C57BL/6J mouse cortex sEH using 14,15-EET as substrate preincubated for 15 mins followed by substrate addition measured after 2 hrs by UPLC-MS/MS analysis
result.type: IC50 (µM)
Give your result in µM as a bare value.

For the molecule shown here, CC1(C)[C@@H](O)CC[C@]2(C)[C@H]3C(=O)C=C4[C@@H]5C[C@@](C)(CNC(=O)NCc6ccc(OC(F)(F)F)cc6)CC[C@]5(C)CC[C@@]4(C)[C@]3(C)CC[C@@H]12 , give the reported IC50. 0.0086

For the molecule shown here, CCC(=O)N1CCC(CNC(=O)NC[C@@]2(C)CC[C@]3(C)CC[C@]4(C)C(=CC(=O)[C@@H]5[C@@]6(C)CC[C@H](O[C@@H]7O[C@H](CO)[C@@H](O)[C@H](O)[C@@H]7O)C(C)(C)[C@@H]6CC[C@]54C)[C@@H]3C2)CC1 , give the reported IC50. 0.174

For the molecule shown here, CC1(C)[C@@H](O[C@H]2O[C@H](CO)[C@@H](O)[C@H](O)[C@H]2O)CC[C@]2(C)[C@H]3C(=O)C=C4[C@@H]5C[C@@](C)(CNC(=O)NCC6CCOCC6)CC[C@]5(C)CC[C@@]4(C)[C@]3(C)CC[C@@H]12 , give the reported IC50. 0.387

For the molecule shown here, CC1(C)[C@@H](O)CC[C@]2(C)[C@H]3C(=O)C=C4[C@@H]5C[C@@](C)(CNC(=O)NCc6ccc(S(C)(=O)=O)cc6)CC[C@]5(C)CC[C@@]4(C)[C@]3(C)CC[C@@H]12 , give the reported IC50. 0.0159

For the molecule shown here, CC1(C)[C@@H](O[C@H]2OC[C@@H](O)[C@H](O)[C@H]2O)CC[C@]2(C)[C@H]3C(=O)C=C4[C@H]5C[C@@](C)(CNC(=O)NCC6CCOCC6)CC[C@]5(C)CC[C@@]4(C)[C@]3(C)CC[C@@H]12 , give the reported IC50. 0.45

For the molecule shown here, CC(C)CNC(=O)NC[C@@]1(C)CC[C@]2(C)CC[C@]3(C)C(=CC(=O)[C@@H]4[C@@]5(C)CC[C@H](O)C(C)(C)[C@@H]5CC[C@]43C)[C@H]2C1 , give the reported IC50. 0.0134

For the molecule shown here, CC1(C)[C@@H](O[C@@H]2O[C@H](CO)[C@@H](O)[C@H](O)[C@@H]2O)CC[C@]2(C)[C@H]3C(=O)C=C4[C@H]5C[C@@](C)(CNC(=O)NCC6CCOCC6)CC[C@]5(C)CC[C@@]4(C)[C@]3(C)CC[C@@H]12 , give the reported IC50. 0.16

For the molecule shown here, CC1(C)[C@@H](O[C@@H]2O[C@H](CO)[C@H](O)[C@H](O)[C@H]2O)CC[C@]2(C)[C@H]3C(=O)C=C4[C@H]5C[C@@](C)(CNC(=O)NCC6CCOCC6)CC[C@]5(C)CC[C@@]4(C)[C@]3(C)CC[C@@H]12 , give the reported IC50. 0.542
